The origin of these recorded values is ChEMBL document CHEMBL1201862.

system: IGROV-1; experiment: NCI tumour cell line growth inhibition, 48 h
Active and inactive are the calls of the source. No stated cut-off is given here; in the data, active = GI50 up to about 1.1 µM and inactive = higher.
# reported GI50; entries follow

Sample answers from the record:
| compound | GI50 |
| --- | --- |
| Cc1cccc(NC2=NC(=O)C(CC(=O)Nc3ccc(Cl)cc3C)S2)c1 (stereo not given) | > 100 µM (inactive) |
| CC1=NN(C(=O)CC(=O)Nc2cccc(C)c2)C(=O)C1/N=N/c1ccc(C(=O)O)cc1 (stereo not given) | > 100 µM (inactive) |
| O=c1oc2ccccc2cc1-c1ccc([N+](=O)[O-])cc1 | > 100 µM (inactive) |
| Cc1cc(NC(=O)C(=O)Cc2cnc3ccccc3n2)c(S(=O)(=O)O)cc1Cl | > 100 µM (inactive) |
| FC(F)(F)C1(C(F)(F)F)OC(Cl)(Cl)C(Cl)(Cl)O1 | > 10 µM (inactive) |
| COc1ccc(/C=C2\C(=O)N(NC(C)=O)c3ccccc32)cc1 | > 100 µM (inactive) |

Any idea what its GI50 is? The compound is COc1cc2c(cc1O)[C@@]1(Cc3ccc(OC)c(OC)c3)CCC(=O)N1CC2
> 100 µM (inactive)

Any idea what its GI50 is? The compound is N#C/C(=C\c1ccc(F)cc1)c1nc(-c2cc3ccccc3oc2=O)cs1
22.6 µM (inactive)

Any idea what its GI50 is? The compound is CCCCc1c2c(nc3c1CCCC3=O)C(=O)CCC2
> 100 µM (inactive)

Any idea what its GI50 is? The compound is O=C1C(Cl)=C(N[C@@H](Cc2ccccc2)C(=O)OCc2ccccc2)C(=O)c2c(O)ccc(O)c21
4.08 µM (inactive)
